kcat values by entry
Substrate: C1O[C@@H]1[C@H]1CO1
Assay: purified protein
Details: 5 mM GSH, 0.10 M Tris-HCl pH 7.7, 37 °C, 1 h
Express it in s⁻¹; write the number only.

Report kcat for human GST A3-3 (Homo sapiens) (protein) AGKPKLHYFNGRGRMEPIRWLLAAAGVEFEEKFIGSAEDLGKLRNDGSLMFQQVPMVEIDGMKLVQTRAILNYIASKYNLYGKDIKERALIDMYTEGMADLNEMILLLPLCRPEEKDAKIALIKEKTKSRYFPAFEKVLQSHGQDYLVGNKLSRADISLVELLYYVEELDSSLISNFPLLKALKTRISNLPTVKKFLQPGSPRKPPADAKALEEARKIFRF please. 0.0302

Item: human GST P1-1 (Homo sapiens) (protein) PPYTVVYFPVRGRCAALRMLLADQGQSWKEEVVTVETWQEGSLKASCLYGQLPKFQDGDLTLYQSNTILRHLGRTLGLYGKDQQEAALVDMVNDGVEDLRCKYISLIYTNYEAGKDDYVKALPGQLKPFETLLSQNQGGKTFIVGDQISFADYNLLDLLLIHEVLAPGCLDAFPLLSAYVGRLSARPKLKAFLASPEYVNLPINGNGKQ 0.0265

Same again, this time with human GST A1-1 (Homo sapiens) (protein) AEKPKLHYFNARGRMESTRWLLAAAGVEFEEKFIKSAEDLDKLRNDGYLMFQQVPMVEIDGMKLVQTRAILNYIASKYNLYGKDIKERALIDMYIEGIADLGEMILLLPVCPPEEKDAKLALIKEKIKNRYFPAFEKVLKSHGQDYLVGNKLSRADIHLVELLYYVEELDSSLISSFPLLKALKTRISNLPTVKKFLQPGSPRKPPMDEKSLEEARKIFRF 0.0342

Attribution: paper PMC3850785
